System: MS2 coat protein
Experiment: apparent Kd, MS2 coat protein; higher = weaker binding; RNA-MaP array
Conditions: ligand present: theophylline; designed as: OFF switch for theophylline
reported metric: apparent Kd

| residue string | test result |
| --- | --- |
| UAGAAGAACAUGCGGGCUCCGGACGGUGAUACCAGAUCGAAAAGGAUCCCUUGGCAGCACUGCACAUGAGGAUCACCCAUGUGCA | 0.0158 µM |
| ACUCGGCAUCAUGAUACCAGAGAGCCCGAGAUGCCUUAACACAUGAGGAUCACCCAUGUACUCCCUUGGCAGCAUCAUGCACUAU | 0.0244 µM |
| GCUCGUUGCAUGGAUACCAGUUGAUAGGCCGCCUCCGGAUACAUGAGGAUCACCCAUGUCAACCCUUGGCAGCCACCCAAUAGGG | 0.0181 µM |
| GAUGGAAUAAGAGAUACCAGACACAAUUUAGCAUGUAUAUACAUGAGGAUCACCCAUGUAGUCCCUUGGCAGCUCUGGUUAGUGU | 0.0267 µM |
| CUCCCACUAUCUGAUACCAGAGGAUAAACGUAGACUGGGAACAUGAGGAUCACCCAUGUCCUCCCUUGGCAGCAGGACUUAUCUC | 0.0383 µM |

----------
Each entry below carries its reported apparent Kd.
Tested on: MS2 coat protein
Assay: apparent Kd, MS2 coat protein; higher = weaker binding; RNA-MaP array; FMN 200 µM where present
Conditions: designed as: ON switch for flavin mononucleotide; no ligand
reported metric: apparent Kd (nM)

| residue string | reported metric | unit | test result |
| --- | --- | --- | --- |
| GGGAGACAUGAGGAUCACCCAUGUGAAAACGUGCGAGGAUAUCAAUGGAAACCAUACUGUUGAGAAGGCGUUUGUC | apparent Kd | nM | 100 |
| UUAGGACGAAACAUGAGGAUCACCCAUGUGUUAUAAUUAAUAUAGGAUAUGUUUAUACUUUUUGGGCAGAAGGAUGAUAUUGCU | apparent Kd | nM | 19.8 |
| UUUACUUUGUAGAAGGGUGACAUGAGGAUCACCCAUGUGCGUCGCCUGAAAGACCAGGGUACGCCACAGGAUAUACAAAGUAAG | apparent Kd | nM | 56.5 |
| UAUCUAUUUAUGGGAUUAGAAUAUGAGGAUAUCAUUUAUUUAUACAUGAGGAUCACCCAUGUUACUGAGAAGGCAUAUUUAAUA | apparent Kd | nM | 13.4 |
| UGUAAUUAGUAAGGAUAUACUAGUGAUUAGCUUGUAGAAGGUACAGUCUUAUGUAUAACAAAUUAACAUGAGGAUCACCCAUGU | apparent Kd | nM | 10.2 |
| GACUUUCGGGCAGGAUAUGGGUGCCGUCAAGACAUGAGGAUCACCCAUGUCCCAUACACGAGCGCUCAGAAGGGCUCAUUGUAG | apparent Kd | nM | 67 |
| UCUAGGGACGCAGGAUAUGGAGUGAGUGUCUAUCACAUGAGGAUCACCCAUGUUUGGGUCUCACGCUAGAAGGGCGAAUGUGGG | apparent Kd | nM | 357 |
| GUACAGAUCACAGGAUAUCACGUCGUUUAGACGUGAGAAGGGUGAUCACACAUGAAUAUUAAUACAUGAGGAUCACCCAUGUAC | apparent Kd | nM | 36 |
| GUAGCAUACCAAGGAUAUUUAGGGCUUUGAUAGACAUGAGGAUCACCCAUGUGGCGUUAGUCAAGGGAGAAGGUGGUAUGCUAC | apparent Kd | nM | 22.6 |
| GACUGAUUGUAGAAGGUACUUAAUAAUAUUUAAUAACUCAUGUGACAUGAGGAUCACCCAUGUAGUAAGGAUAUACAUAUCUCA | apparent Kd | nM | 211 |
| UUACAUACAAAGGUACAUGAGGAUCACCCAUGUUUGUUGGGAAGAAGGGUAACAGUACUACAUAUAUAGGAUAUUUCACAAAUA | apparent Kd | nM | 122 |
| GACUCUAAGUUUGUCAGUUAGAGAGAGGAUAUGGAAAACUUGACAUGAGGAUCACCCAUGUAUAAUCAGAAGGCUCGAGUACGA | apparent Kd | nM | 12.9 |
| GUUACAUGAGGAUCACCCAUGUAUGUGUGGGAGUAAGUGUCUUAGGAUAUCUAUCAUUGAAUUUAAGAGAAGGAAGAUUGUUGU | apparent Kd | nM | 113 |
| UUCAUCAAUGAAGGAUAUCUAUAUCCAACAUGAGGAUCACCCAUGUUGAGGAUCACCCAUGUAAAGGAGAAGGUUAAUAUAACU | apparent Kd | nM | 35.9 |
